Data credit: PubChem BioAssay (NCATS)

# System: Dd2
# measurement_description: qHTS profiling for inhibitors of Plasmodium falciparum proliferation (AID 504749); note: nearly all actives have a fitted effect of over 60% in size
# measurement_parameters: P. falciparum in erythrocytes, SYBR Green DNA, 72 h; series mostly up to 12.8 µM
Records with an inconclusive call do not appear. Activity calls are given as the source filed them. Calls come from the whole dose curve; as a rule, active = well fitted inhibition curve with a large enough effect; inconclusive = small, poorly fitted or top-dose-only effect; inactive = flat fitted curve, though single readings scatter. Bridge positions count the residues as written; N and C are the ends. Square brackets hold non-standard residues; d marks the D form. Peptide text beside a SMILES is read from it. * marks the point of attachment. Ileψ(thiazoline)Cys = CC[C@H](C)[C@H](N)C1=N[C@H](C(=O)*)CS1; d(aIle) = CC[C@H](C)[C@@H](N)C(=O)O; dOrn = NCCC[C@@H](N)C(=O)O
Outcome codes: TRUE for active, FALSE for inactive

compound=NS(=O)(=O)c1cc2c(cc1Cl)N[C@@H](C(Cl)Cl)NS2(=O)=O label_value=FALSE
compound="C=Cc1c(C)c2cc3nc(cc4[nH]c(cc5nc(cc1[nH]2)C(C)=C5CCC(=O)O)c(CCC(=O)OC)c4C)[C@@]1(C)C3=CC=C(C(=O)OC)[C@H]1C(=O)OC (tested in a mixture with another compound)" label_value=TRUE
compound="CO[C@]12C(COC(N)=O)C3=C(C(=O)C(C)=C(N)C3=O)N1CC1NC12 (stereo not given in full)" label_value=TRUE
compound=CC(=O)OCC(=O)[C@@]1(O)CC[C@@H]2[C@H]3CCC4=CC(=O)C=C[C@]4(C)[C@]3(F)[C@@H](O)C[C@@]21C label_value=FALSE
compound=CCN(CCCCOC(=O)c1ccc(OC)c(OC)c1)[C@@H](C)Cc1ccc(OC)cc1 label_value=FALSE
compound=CC(=O)[C@@H]1CC[C@@H]2[C@@H]3C[C@H](C)C4=CC(=O)CC[C@@]4(C)[C@H]3[C@H](O)C[C@]21C label_value=FALSE
compound=CN(C)CCn1nnnc1SCC1=C(C(=O)O)N2C(=O)[C@@H](NC(=O)Cc3csc(N)n3)[C@@H]2SC1 label_value=FALSE
compound=NC(=O)N[C@H]1NC(=O)NC1=O label_value=FALSE
compound="CCCC(=O)O[C@]1(C(=O)CO)CCC2[C@@H]3CCC4=CC(=O)CC[C@]4(C)C3C(O)C[C@]21C (stereo not given in full)" label_value=FALSE
compound=Cc1ccsc1/C=C\C1=NCCCN1C label_value=FALSE
compound="C[C@@H]1O[C@H](O[C@@H]2\\C=C/C=C\\C=C/C=C\\C[C@H](C)OC(=O)/C=C\\[C@H]3O[C@@H]3C[C@H](O)C[C@]3(O)C[C@@H](O)[C@@H](C(=O)O)[C@H](C2)O3)[C@@H](O)[C@H](N)[C@@H]1O (stereo in doubt)" label_value=FALSE
compound=CC(C)NC[C@H]1CCc2cc(CO)c([N+](=O)[O-])cc2N1 label_value=FALSE
compound=COc1cc(N)c(Cl)cc1C(=O)N[C@H]1CCN(CCCOc2ccc(F)cc2)C[C@H]1OC label_value=TRUE
compound=CC[C@H](CO)NCCN[C@@H](CC)CO label_value=FALSE
compound="CC[C@H](C)[C@H](N)C1=N[C@H](C(=O)N[C@@H](CC(C)C)C(=O)N[C@@H](CCC(=O)O)C(=O)N[C@@H](C(=O)N[C@H]2CCCCNC(=O)[C@@H](CC(N)=O)NC(=O)[C@@H](CC(=O)O)NC(=O)[C@@H](Cc3cnc[nH]3)NC(=O)[C@@H](Cc3ccccc3)NC(=O)[C@@H]([C@@H](C)CC)NC(=O)[C@@H](CCCN)NC2=O)[C@@H](C)CC)CS1 ({Ileψ(thiazoline)Cys}-LE[d(aIle)]K[dOrn][d(aIle)][dF][dH][dD][dN]; lactam 4-C)" label_value=FALSE

* * *

# assayed_system: Rap guanine nucleotide exchange factor 4 (Homo sapiens)
# measurement_description: Confirmatory qHTS for agonist of cAMP-regulated guanine nucleotide exchange factor 4 (EPAC2) (AID 1645884);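 note: nucleotide exchange releases bodipy-GDP from Rap1 and this lowers its fluorescence; % is set by controls: 0 for no effect and ±100 for the full control effect; nearly all actives have a fitted effect of over 65% in size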
# measurement_parameters: EPAC2 GEF activity, Rap1B-BODIPY-GDP fluorescence; series mostly up to 154 µM
Results filed as inconclusive are left out. The source made the active and inactive calls. Calls come from the whole dose curve; as a rule, active = well fitted activation curve with a large enough effect; inconclusive = small, poorly fitted or top-dose-only effect; inactive = no such curve, though single readings can be large or run the other way.
measurement_name: activation

compound=CCc1ccc(/C=C2\SC(=S)N(CCC(=O)Nc3cc(C)on3)C2=O)cc1 assayed_system="Rap guanine nucleotide exchange factor 4 (Homo sapiens)" value_observed=inactive
compound=Cc1cc2ccccn2c1C(=O)c1ccc(Cl)cc1 assayed_system="Rap guanine nucleotide exchange factor 4 (Homo sapiens)" value_observed=inactive
compound="C/C(=N\\N1C(=O)c2ccccc2NC1c1ccco1)c1ccccc1O (stereo not drawn)" assayed_system="Rap guanine nucleotide exchange factor 4 (Homo sapiens)" value_observed=inactive

* * *

# measurement_description: qHTS Assay for Lipid Storage Modulators (AID 1519)
# measurement_parameters: Drosophila S3 cells, BODIPY lipid droplet/cell ratio, laser cytometry; measured here: lipid channel max response; cells loaded with oleic acid
Results filed as inconclusive are left out.
Friendly reminder: max response below -10% is yes (1), at or above is no (0).

compound="COc1cc(-c2coc3cc(O[C@H]4OC(CO)C(O)C(O)C4O)c(OC)c(O)c3c2=O)cc(O)c1OC (some centres undefined)" label_value="no (0)"
compound=C[C@@]12C=CC(=O)C=C1CC[C@H]1[C@H]3CC[C@](O)(C(=O)CO)[C@]3(C)CC(=O)[C@@H]12 label_value="no (0)"
compound=CNc1ncnc2c1ncn2[C@@H]1O[C@H](CO)[C@@H](O)[C@@H]1O label_value="yes (1)"
compound=CCCCC[C@H](O)/C=C\[C@@H]1[C@H](O)CC(=O)[C@@H]1CCCCCCC(=O)O label_value="yes (1)"
compound="O=C(CCc1ccc(O)cc1)c1c(O)cc(O)cc1O[C@H]1OC(CO)C(O)C(O)C1O (some centres undefined)" label_value="no (0)"
compound="Fc1ccc([C@H]2CCNCC2COc2ccc3c(c2)OCO3)cc1 (some centres undefined)" label_value="no (0)"
compound="COc1ccc2c(c1)OC1(O)COc3cc(OC)c(OC)cc3C1=C2 (centres undefined)" label_value="yes (1)"
compound=COc1ccc(-c2coc3cc(O)ccc3c2=O)c(O)c1O label_value="no (0)"

* * *

# measurement_description: qHTS Assay for Lipid Storage Modulators (AID 1519)
# measurement_parameters: Drosophila S3 cells, BODIPY lipid droplet/cell ratio, laser cytometry; measured here: cell count channel max response; cells loaded with oleic acid
Results filed as inconclusive are left out.
measurement_name: max response

compound=N[C@H](Cc1cc(I)c(Oc2ccc(O)c(I)c2)c(I)c1)C(=O)O value_observed=8.52%
compound=O=C(NCO)c1cccnc1 value_observed=14.8%
compound="COc1ccc2c(c1OC)OCC(c1ccc(OC)c(OC)c1OC)C2 (stereo unspecified)" value_observed=12.7%
compound="CC(=O)O[C@@]1(C(C)=O)CCC2C3C=C(Cl)C4=CC(=O)CC[C@]4(C)C3CC[C@]21C (stereo partly specified)" value_observed=-10.2%
compound=NC1=NCCN1CC(=O)O value_observed=1.34%
compound=CCN(CC)CCOC(=O)[C@@H](Cc1cccc2ccccc12)C[C@@H]1CCCO1 value_observed=-1.15%

* * *

# measurement_description: Confirmation and Secondary Assay for Modulators of Hemoglobin Beta Chain Splicing at IVS2 654 locus (AID 910);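 note: HeLa cells stably carrying EGFP split by mutant beta-globin IVS2-654 intron; per-well total GFP intensity by laser scanning cytometry after 2-day treatment; % of control where 0% means no effect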
# measurement_parameters: HeLa EGFP-654 splicing reporter, GFP fluorescence, 48 h; series mostly up to 46.1 µM
# Protocol: NIH Chemical Genomics Center [NCGC] NIH Molecular Libraries Screening Centers Network [MLSCN] […] NCGC Assay Protocol Summary: Confirmatory Screening. […] Plates were read in the Acumen Explorer (TTP Labtech) using 488 nm laser excitation and 500-520 nm emission PMT filter in a 1 x […] capture mode. Fluorescnet objects ranging in size from 5 to 250 uM were measured and the total peak GFP intensity for each well was used for data analysis. […]
Active and inactive are the calls of the source. Calls follow the shape of the dose curve; as a rule, active = well fitted activation curve with a large enough effect; inconclusive = small, poorly fitted or top-dose-only effect; inactive = flat fitted curve, though single readings scatter.
measurement_name: outcome

compound="CC(=O)NC(CC(=O)O)C(=O)O (stereo unspecified)" value_observed=inactive
compound="CC1CCC2(OC1)OC1CC3C4CC[C@@H]5CC(O)CC[C@@]5(C)C4CC(=O)[C@]3(C)C1C2C (stereo partly specified)" value_observed=inactive
compound=c1ccc2c(c1)CN1CCCC1=N2 value_observed=inactive
compound=CCCCC(=O)Oc1ccccc1C(=O)O value_observed=inactive
compound="CC1=C(C(=O)O)N2C(=O)C(NC(=O)C(N)C3=CCC=CC3)C2SC1 (stereo unspecified)" value_observed=inactive
compound=COc1cc(O)c(C(=O)O)c(O)c1 value_observed=inactive

* * *

# Test system: CP192
# measurement_description: qHTS profiling for inhibitors of Plasmodium falciparum proliferation (AID 504749); note: nearly all actives have a fitted effect of over 60% in size
# measurement_parameters: P. falciparum in erythrocytes, SYBR Green DNA, 72 h; series mostly up to 12.8 µM
Records with an inconclusive call do not appear. Activity calls are given as the source filed them. Calls follow the shape of the dose curve; as a rule, active = well fitted inhibition curve with a large enough effect; inconclusive = small, poorly fitted or top-dose-only effect; inactive = flat fitted curve, though single readings scatter.
Outcome codes: y for active, n for inactive

compound=C[C@@H]1C[C@H]2[C@@H]3C[C@H](F)C4=CC(=O)C=C[C@@]4(C)[C@]3(F)[C@H](O)C[C@]2(C)[C@@]1(O)C(=O)CO assayed_system=CP192 label_value=n
compound=CC(C)(C)NC(=O)[C@@H]1CC[C@@H]2[C@@H]3CC[C@@H]4NC(=O)C=C[C@@]4(C)[C@H]3CC[C@]21C assayed_system=CP192 label_value=n
compound=COc1cc(N)c(Cl)cc1C(=O)N[C@H]1CCN(CCCOc2ccc(F)cc2)C[C@H]1OC assayed_system=CP192 label_value=n
compound=NC(=O)c1ccc[n+]([C@@H]2O[C@H](COP(=O)([O-])OP(=O)(O)OC[C@H]3O[C@@H](n4cnc5c(N)ncnc54)[C@@H](O)[C@@H]3O)[C@@H](O)[C@@H]2O)c1 assayed_system=CP192 label_value=n
compound=CCC(=O)O[C@@]1(C(=O)SCF)[C@@H](C)C[C@H]2[C@@H]3C[C@@H](F)C4=CC(=O)C=C[C@@]4(C)[C@]3(F)[C@@H](O)C[C@]21C assayed_system=CP192 label_value=n
compound=COc1ccc(OC)c([C@H](O)CNC(=O)CN)c1 assayed_system=CP192 label_value=n
compound=CN(C)CCOC(=O)[C@@H](c1ccccc1)C1(O)CCCC1 assayed_system=CP192 label_value=n
compound=CC(=O)[C@@H]1CC[C@@H]2[C@@H]3C[C@H](C)C4=CC(=O)CC[C@@]4(C)[C@H]3[C@H](O)C[C@]21C assayed_system=CP192 label_value=n
compound=C[C@H](C(=O)O)c1cccc(Oc2ccccc2)c1 assayed_system=CP192 label_value=n
compound=CCC(=O)OCC(=O)[C@@]1(OC(=O)CC)[C@H](C)C[C@@H]2[C@@H]3[C@H]([C@@H](O)C[C@@]21C)[C@]1(C)C=CC(=O)C=C1C[C@@H]3Cl assayed_system=CP192 label_value=n
compound="C[C@@H]1Cc2ccccc2N1NC(=O)c1ccc(Cl)c(S(N)=O)c1 (some centres undefined)" assayed_system=CP192 label_value=n
compound="COc1ccc(CC(N)C(=O)NC2C(CO)OC(n3cnc4c(N(C)C)ncnc43)C2O)cc1 (centres undefined)" assayed_system=CP192 label_value=y
compound=COc1c(O[C@H]2O[C@@H](CO)[C@@H](O)[C@@H](O)[C@@H]2O)cc2c(c1OC)-c1ccc(SC)c(=O)cc1[C@H](NC(C)=O)CC2 assayed_system=CP192 label_value=n
compound="COC1OC(CO)C(OC2OC(C(=O)O)C(OC3OC(COS(=O)(=O)O)C(OC4OC(C(=O)O)C(OC5OC(CO)C(OC6OC(C(=O)O)C(OC7OC(COS(=O)(=O)O)C(OC8OC(C(=O)O)=C[C@H](O)C8OS(=O)(=O)O)C(O)C7NC(C)=O)[C@@H](O)C6O)C(O)C5NC(C)=O)[C@@H](O)C4O)C(O)C3NC(C)=O)[C@@H](O)C2O)C(O)C1NC(C)=O (some centres undefined)" assayed_system=CP192 label_value=n
